- Target: ExsA (Pseudomonas aeruginosa)
- Construct: made in house
- Sequence (P26993 whole entry): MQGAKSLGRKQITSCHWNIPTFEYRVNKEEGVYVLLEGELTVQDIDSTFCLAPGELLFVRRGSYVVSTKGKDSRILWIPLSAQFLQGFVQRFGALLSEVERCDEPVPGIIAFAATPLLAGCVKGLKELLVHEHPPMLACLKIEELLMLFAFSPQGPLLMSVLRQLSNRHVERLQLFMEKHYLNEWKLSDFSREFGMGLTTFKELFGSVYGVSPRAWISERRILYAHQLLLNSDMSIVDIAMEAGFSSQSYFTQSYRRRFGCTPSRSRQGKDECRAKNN
- Procedure Summary: Chemiluminescence-based ExsA-DNA binding assay
- Set-up: species or system P. aeruginosa
- Reported Conditions: Table 7, cell-free system; read-out: ExsA EC50

{"columns": ["Smiles Notation", "EC50"],
 "data": [
  ["O=C(Nc1ccc(-c2nc3ccc([N+](=O)[O-])cc3n2O)cc1)c1ccccc1O", "10 to 25 µM"],
  ["O=C(Nc1ccc(-c2nc3ccc([N+](=O)[O-])cc3n2O)cc1)c1ccc(-n2cccn2)cc1", "< 10 µM"],
  ["Cc1cc(-c2nc3ccc([N+](=O)[O-])cc3n2O)ccc1NC(=O)/C=C/c1ccc(F)cc1", "> 25 µM"],
  ["O=C(Nc1ccc(-c2nc3ccc([N+](=O)[O-])cc3n2O)cc1)c1ccc(-n2ccnc2)cc1", "10 to 25 µM"],
  ["CN(C)C(=O)c1ccc(C(=O)Nc2ccc(-c3nc4ccc([N+](=O)[O-])cc4n3O)cc2)cc1", "> 25 µM"],
  ["O=C(Nc1ccc(-c2nc3ccc([N+](=O)[O-])cc3n2O)cc1)c1ccc(F)c(F)c1", "10 to 25 µM"],
  ["O=C(O)c1ccc(C(=O)Nc2ccc(-c3nc4ccc([N+](=O)[O-])cc4n3O)cc2)cc1", "> 25 µM"],
  ["CC(=NO)c1ccc2nc(-c3ccc(NC(=O)c4ccc(N(C)C)cc4)cc3)n(O)c2c1", "> 25 µM"]
]}
